// reported Log D7.4 per item
# Experiment: Distribution coefficient log D at pH 7.4
# Format: physicochemical
# Details: pH 7.4, n = 3
Just the number, please, no unit attached.

Some compounds with known Log D7.4 results, for comparison:
compound="CN(CC(=O)NCC(S(=O)(=O)O)S(=O)(=O)O)Cc1cc(Cl)c(OCc2cccc(-c3cccc(OCc4cn(CCCC5CCN(C(=O)CN6CCN(CC(=O)O)CCN(CC(=O)O)CCN(CC(=O)O)CC6)CC5)nn4)c3)c2Br)cc1OCc1cncc(S(C)(=O)=O)c1 [Compound 115]" readout_number=−2.73
compound="Cc1c(COc2cc(OCc3cncc(S(C)(=O)=O)c3)c(CN(C)CC(=O)NCC(S(=O)(=O)O)S(=O)(=O)O)cc2Cl)cccc1-c1cccc(OCc2cn(CCCC3CCN(C(=O)CN4CCN(CC(=O)O)CCN(CC(=O)O)CCN(CC(=O)O)CC4)CC3)nn2)c1C [Compound 118]" readout_number=−2.75
compound="Cc1c(COc2cc(OCc3cncc(C#N)c3)c(CN(C)CC(=O)NCC(S(=O)(=O)O)S(=O)(=O)O)cc2Br)cccc1-c1cccc(OCc2cn(CCCN3CCN(C(=O)CN4CCN(CC(=O)O)CCN(CC(=O)O)CCN(CC(=O)O)CC4)CC3)nn2)c1C [Compound 122]" readout_number=−3.48

// next item, Log D7.4 requested
## Task Any idea what its Log D7.4 is? The compound is Cc1c(COc2cc(OCc3cncc(S(C)(=O)=O)c3)c(CN(C)CC(=O)NCC(S(=O)(=O)O)S(=O)(=O)O)cc2Cl)cccc1-c1cccc(OCc2cn(CCOCCOCCN3CCN(C(=O)CN4CCN(CC(=O)O)CCN(CC(=O)O)CCN(CC(=O)O)CC4)CC3)nn2)c1C [Compound 120]
## Result −3.50

----------
# Study System: PD-L1 (Homo sapiens, UniProt Q9NZQ7)
# Construct: expressed in transfected cells; host or cells: PC3 hPSCA PD-L1 overexpressing cell line
# Sequence (Q9NZQ7 19-290): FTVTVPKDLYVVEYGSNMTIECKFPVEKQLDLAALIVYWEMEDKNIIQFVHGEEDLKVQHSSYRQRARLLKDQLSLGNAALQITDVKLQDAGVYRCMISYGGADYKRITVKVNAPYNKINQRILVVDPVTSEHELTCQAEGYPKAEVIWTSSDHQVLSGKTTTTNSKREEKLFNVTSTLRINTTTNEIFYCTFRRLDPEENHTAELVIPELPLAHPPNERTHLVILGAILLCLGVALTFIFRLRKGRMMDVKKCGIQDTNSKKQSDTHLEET
# Experiment: Saturation binding assay of Cu-64 labelled radioligands on PC3 hPSCA PD-L1 overexpressing cell line
# Details: PC3 hPSCA PD-L1 cells, n = 3
# Protocol: Experiments were performed on a PC3 hPSCA PD-L1 overexpressing cell line in triplicates and three experiments were performed per compound, resulting in a 3×3 data set per compound (see FIGS. 1 to 3). The saturated, upper curve represents the total binding of the compound whereas the lower, linear curve represents the unspecific binding. The specific binding is represented as the difference between total and unspecific binding. […]
Parameter: Bmax (receptor density) (pmol/mg)
Supply the numeric figure in pmol/mg, leaving out any unit text.

Some molecules with known Bmax (receptor density) results, for comparison:
chemical_smiles=Cc1c(COc2cc(OCc3cncc(C#N)c3)c(CN(C)CC(=O)NCC(S(=O)(=O)O)S(=O)(=O)O)cc2I)cccc1-c1cccc(OCc2cn(CCCN3CCN(C(=O)CN4CCN(CC(=O)O)CCN(CC(=O)O)CCN(CC(=O)O)CC4)CC3)nn2)c1C parameter="Bmax (receptor density)" readout_number=49.6
chemical_smiles=Cc1c(COc2cc(OCc3cncc(S(C)(=O)=O)c3)c(CN(C)CC(=O)NCC(S(=O)(=O)O)S(=O)(=O)O)cc2Cl)cccc1-c1cccc(OCc2cn(CCCN3CCN(C(=O)CN4CCN(CC(=O)O)CCN(CC(=O)O)CCN(CC(=O)O)CC4)CC3)nn2)c1C parameter="Bmax (receptor density)" readout_number=5.43

// next item, Bmax (receptor density) requested
## Task Checklist item: Bmax (receptor density) tested on PD-L1 (Homo sapiens, UniProt Q9NZQ7), entry Cc1c(COc2cc(OCc3cncc(C#N)c3)c(CN(C)CC(=O)NCC(S(=O)(=O)O)S(=O)(=O)O)cc2Cl)cccc1-c1cccc(OCc2cn(CCCN3CCN(C(=O)CN4CCN(CC(=O)O)CCN(CC(=O)O)CCN(CC(=O)O)CC4)CC3)nn2)c1C , value?
## Result 20.9

----------
# Study System: PD-L1 (Homo sapiens, UniProt Q9NZQ7)
# Construct: expressed in transfected cells; host or cells: PC3 hPSCA PD-L1 overexpressing cell line
# Experiment: Saturation binding assay of Cu-64 labelled radioligands on PC3 hPSCA PD-L1 overexpressing cell line
# Details: PC3 hPSCA PD-L1 cells, n = 3
# Protocol: Experiments were performed on a PC3 hPSCA PD-L1 overexpressing cell line in triplicates and three experiments were performed per compound, resulting in a 3×3 data set per compound (see FIGS. 1 to 3). The saturated, upper curve represents the total binding of the compound whereas the lower, linear curve represents the unspecific binding. The specific binding is represented as the difference between total and unspecific binding. […]
// reported Bmax (receptor density) per item
Supply the numeric figure in pmol/mg, leaving out any unit text.

chemical_smiles=Cc1c(COc2cc(OCc3cncc(S(C)(=O)=O)c3)c(CN(C)CC(=O)NCC(S(=O)(=O)O)S(=O)(=O)O)cc2Cl)cccc1-c1cccc(OCc2cn(CCOCCOCCN3CCN(C(=O)CN4CCN(CC(=O)O)CCN(CC(=O)O)CCN(CC(=O)O)CC4)CC3)nn2)c1C readout_number=7.04

## Task Any idea what its Bmax (receptor density) is? The compound is CN(CC(=O)NCC(S(=O)(=O)O)S(=O)(=O)O)Cc1cc(Cl)c(OCc2cccc(-c3cccc(OCc4cn(CCCC5CCN(C(=O)CN6CCN(CC(=O)O)CCN(CC(=O)O)CCN(CC(=O)O)CC6)CC5)nn4)c3)c2Br)cc1OCc1cncc(S(C)(=O)=O)c1
## Result 11.7

## Task Any idea what its Bmax (receptor density) is? The compound is Cc1c(COc2cc(OCc3cncc(S(C)(=O)=O)c3)c(CN(C)CC(=O)NCC(S(=O)(=O)O)S(=O)(=O)O)cc2Cl)cccc1-c1cccc(OCc2cn(CCCC3CCN(C(=O)CN4CCN(CC(=O)O)CCN(CC(=O)O)CCN(CC(=O)O)CC4)CC3)nn2)c1C
## Result 13.5

## Task Any idea what its Bmax (receptor density) is? The compound is Cc1c(COc2cc(OCc3cncc(C#N)c3)c(CN(C)CC(=O)NCC(S(=O)(=O)O)S(=O)(=O)O)cc2Br)cccc1-c1cccc(OCc2cn(CCCN3CCN(C(=O)CN4CCN(CC(=O)O)CCN(CC(=O)O)CCN(CC(=O)O)CC4)CC3)nn2)c1C
## Result 8.28

----------
UniProt:Q9NZQ7 pKd data
By convention, pKd is the negative base-10 log of a molar concentration.

molecule="Cc1c(COc2cc(OCc3cncc(C#N)c3)c(CN(C)CC(=O)NCC(S(=O)(=O)O)S(=O)(=O)O)cc2Br)cccc1-c1cccc(OCc2cn(CCCN3CCN(C(=O)CN4CCN(CC(=O)O)CCN(CC(=O)O)CCN(CC(=O)O)CC4)CC3)nn2)c1C [Compound 122]" study_system=UniProt:Q9NZQ7 parameter=pKd readout_number=6.87

## Task Any idea what its pKd is? The molecule is Cc1c(COc2cc(OCc3cncc(S(C)(=O)=O)c3)c(CN(C)CC(=O)NCC(S(=O)(=O)O)S(=O)(=O)O)cc2Cl)cccc1-c1cccc(OCc2cn(CCCN3CCN(C(=O)CN4CCN(CC(=O)O)CCN(CC(=O)O)CCN(CC(=O)O)CC4)CC3)nn2)c1C [Compound 119]
## Result 7.22

## Task Any idea what its pKd is? The molecule is Cc1c(COc2cc(OCc3cncc(S(C)(=O)=O)c3)c(CN(C)CC(=O)NCC(S(=O)(=O)O)S(=O)(=O)O)cc2Cl)cccc1-c1cccc(OCc2cn(CCOCCOCCN3CCN(C(=O)CN4CCN(CC(=O)O)CCN(CC(=O)O)CCN(CC(=O)O)CC4)CC3)nn2)c1C [Compound 120]
## Result 7.15

Every entry's value here was drawn from patent US20250144253A1.
